# measurementTarget: Sodium channel protein type 1 subunit alpha (Rattus norvegicus) (UniProt P04774)
# methodNotes: NVS_IC_rNaCh_site2: NovaScreen (NVS) Ion Channel Assay for rat Sodium Channel, Site 2 (NaCh) (AID 2283322);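 note: hit means loss of radioligand binding signal relative to DMSO so AC50 marks displacement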
Inconclusive results are not listed. The source made the active and inactive calls. Rule for the calls: active = hit-call score of the fitted dose curve at least 0.9, where 1 is the maximum; inconclusive = response in the unintended direction; inactive = score below 0.9.
Returns: one label drawn from True = active, False = inactive

These recorded examples may help you get a feel for the data.
compound=C[Si](Cn1cncn1)(c1ccc(F)cc1)c1ccc(F)cc1 assignedclass=True
compound=CCCOCC(=Nc1ccc(Cl)cc1C(F)(F)F)n1ccnc1 assignedclass=False
compound=CCC(=O)Nc1ccc(Cl)c(Cl)c1 assignedclass=False

Which outcome did this test record for the compound `Cc1cc(C2CC2)nc(Nc2ccccc2)n1` ?
True

Please give the result for `CSc1nc(NC(C)C)nc(NC(C)C)n1` too.
True

Please give the result for CC(C1CC1)C(O)(Cn1cncn1)c1ccc(Cl)cc1 (stereo unspecified) too.
False

----------
# methodNotes: ATG_CRE_CIS: Attagene CIS-FACTORIAL HepG2 Assay for human cAMP Responsive Element (CRE) binding protein 3 (AID 2282926)
# runConditions: HepG2 CRE cis-reporter, Attagene multiplexed mRNA; actives raise or lower the signal
Activity calls are given as the source filed them. Rule for the calls: active = hit-call score of the fitted dose curve at least 0.9, where 1 is the maximum; inactive = score below 0.9.
measurementName: AC50

Observe how each entry below is paired with its result.
compound=COP(=O)(OC)SCn1c(=O)oc2cc(Cl)cnc21 readoutvalue="18.1 µM (active)"
compound=CSc1nnc(C(C)(C)C)c(=O)n1N readoutvalue=inactive
compound=CNC(=O)ON=C(C)SC readoutvalue=inactive
compound=CCCOCC(=Nc1ccc(Cl)cc1C(F)(F)F)n1ccnc1 readoutvalue=inactive
compound=CCOC(=O)COc1cc(-c2nn(C)c(OC(F)F)c2Cl)c(F)cc1Cl readoutvalue=inactive

Can you share its AC50? I mean this compound: CC(C)=CC1C(C(=O)OCN2C(=O)C3=C(CCCC3)C2=O)C1(C)C (stereo not drawn)
38.4 µM (active)

Please give the result for `CNC(=O)ON=C(SC)C(=O)N(C)C` too.
17.4 µM (active)

Please give the result for CC(Oc1cccc(Cl)c1)C(=O)O (stereo not drawn) too.
inactive

----------
# Read-out: Monocyte Chemoattractant Protein-1 (MCP1), CCL2 (gene 6347)
# methodNotes: BSK_LPS_MCP1: BioMAP Diversity Plus: LPS Assay for Monocyte Chemoattractant Protein-1 (MCP1) Biomarker Activity (AID 2283081)
# runConditions: primary human HUVEC with PBMC; actives raise or lower the signal
Calls of active or inactive are those of the source. The calls were made as follows: active = hit-call score of the fitted dose curve at least 0.9, where 1 is the maximum; inactive = score below 0.9.
Returns: one label drawn from active, inactive

These recorded examples may help you get a feel for the data.
compound=COc1cccc(C(=O)NN(C(=O)c2cc(C)cc(C)c2)C(C)(C)C)c1C assignedclass=inactive
compound=Cc1cc(C2CC2)nc(Nc2ccccc2)n1 assignedclass=inactive
compound=CCCOc1nn(C(=O)NS(=O)(=O)c2ccccc2C(=O)OC)c(=O)n1C assignedclass=inactive

Which outcome did this test record for the compound `CNC(=O)Oc1cccc2c1OC(C)(C)O2` ?
inactive

Please give the result for `CC1=NNC(=O)N(/N=C/c2cccnc2)C1` too.
inactive

Please give the result for `Nc1nc(N)nc(NC2CC2)n1` too.
inactive

Please give the result for `Cc1ccn2nc(S(=O)(=O)Nc3c(F)cccc3F)nc2n1` too.
inactive

Please give the result for CCCSP(=O)(OCC)Oc1ccc(Br)cc1Cl (configuration not stated) too.
inactive

Please give the result for C#CCC1=C(C)C(OC(=O)C2C(C=C(C)C)C2(C)C)CC1=O (configuration not stated) too.
active

Please give the result for CCc1cccc(C)c1N(C(=O)CCl)C(C)COC (configuration not stated) too.
inactive

Please give the result for `CNc1cnn(-c2cccc(C(F)(F)F)c2)c(=O)c1Cl` too.
inactive

Please give the result for `CCCOCC(=Nc1ccc(Cl)cc1C(F)(F)F)n1ccnc1` too.
active

----------
# methodNotes: APR_HepG2_p53Act_72hr: Apredica 72-hour HepG2 Assay for p53 Activation (AID 2282923);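 note: average cellular p53 protein immunofluorescence intensity in HepG2 cells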
# runConditions: high-content imaging, actives raise or lower the signal
Activity calls are given as the source filed them. The calls were made as follows: active = hit-call score of the fitted dose curve at least 0.9, where 1 is the maximum; inactive = score below 0.9.
Returns: one label drawn from active, inactive

These recorded examples may help you get a feel for the data.
molecule=Cc1cc(C2CC2)nc(Nc2ccccc2)n1 assignedclass=inactive
molecule=CC(=NC#N)N(C)Cc1ccc(Cl)nc1 assignedclass=inactive
molecule="CCOP(=S)(OCC)OC(Cl)C(Cl)(Cl)Cl (stereo not drawn)" assignedclass=inactive

Which outcome did this test record for the molecule `CCNc1nc(Cl)nc(NC(C)(C)C#N)n1` ?
inactive

Please give the result for `COc1cccc(C(=O)NN(C(=O)c2cc(C)cc(C)c2)C(C)(C)C)c1C` too.
inactive

Please give the result for COP(=O)(NC(C)=O)SC (stereo not drawn) too.
inactive

Please give the result for `CNC(=O)Oc1cccc2c1OC(C)(C)O2` too.
inactive

Please give the result for FC(F)C(F)(F)OCC(Cn1cncn1)c1ccc(Cl)cc1Cl (stereo not drawn) too.
active

Please give the result for `CNC(=O)ON=C(SC)C(=O)N(C)C` too.
inactive

Please give the result for `CCCCOC(=O)c1ccccc1C(=O)O` too.
inactive

----------
# measurementTarget: rat CYP2D1, Cyp2d1 (gene 266684)
# methodNotes: NVS_ADME_rCYP2D1: NovaScreen (NVS) CYP450-related Enzyme Activity (ADME) Assay for rat CYP2D1 (AID 2283122)
# Experimental: NVS_ADME_rCYP2D1 is a biochemical, single-readout assay that uses extracted gene-proteins in a cell-free assay. Measurements were taken 0.75 hour after chemical dosing in a 96-well plate.NVS_ADME_rCYP2D1 is one of one assay component(s) measured or calculated from the NVS_ADME_rCYP2D1 assay. […] This assay endpoint, NVS_ADME_rCYP2D1, was analyzed in the positive analysis fitting direction relative to Acetonitrile as the negative control and baseline of activity. […]
Results filed as inconclusive are left out. Activity calls are given as the source filed them. Rule for the calls: active = hit-call score of the fitted dose curve at least 0.9, where 1 is the maximum; inconclusive = response in the unintended direction; inactive = score below 0.9.
Returns: one label drawn from class 1 for active, class 0 for inactive

These recorded examples may help you get a feel for the data.
molecule=CSC1=N[C@@](C)(c2ccccc2)C(=O)N1Nc1ccccc1 assignedclass="class 0"
molecule=CCC(=O)Nc1ccc(Cl)c(Cl)c1 assignedclass="class 1"
molecule=C[Si](Cn1cncn1)(c1ccc(F)cc1)c1ccc(F)cc1 assignedclass="class 1"
molecule=CCOP(=S)(OCC)Oc1ccc([N+](=O)[O-])cc1 assignedclass="class 1"
molecule=Cc1cc(C2CC2)nc(Nc2ccccc2)n1 assignedclass="class 1"

Query molecule follows.
Which outcome did this test record for the molecule FC(F)C(F)(F)OCC(Cn1cncn1)c1ccc(Cl)cc1Cl (stereo unspecified) ?
class 1

----------
# methodNotes: CCTE_Shafer_MEA_dev_per_network_spike_spike_percent: CCTE's Neural Network Formation Assay for Percent of Spikes in a Network Spike, Shafer Lab (AID 2284054)
Active and inactive are the calls of the source. Rule for the calls: active = hit-call score of the fitted dose curve at least 0.9, where 1 is the maximum; inactive = score below 0.9.
Returns: one label drawn from True for active, False for inactive

These recorded examples may help you get a feel for the data.
molecule=CCOP(=S)(OCC)Oc1ccc([N+](=O)[O-])cc1 assignedclass=False
molecule="CCOP(=O)(SC(C)CC)N1CCSC1=O (stereo unspecified)" assignedclass=False
molecule=CN(C)[C@@H]1C(=O)C(C(N)=O)=C(O)[C@@]2(O)C(=O)C3=C(O)c4c(O)cccc4[C@@](C)(O)[C@H]3[C@H](O)[C@@H]12 assignedclass=True
molecule=CC1=NNC(=O)N(/N=C/c2cccnc2)C1 assignedclass=False
molecule="COP(=O)(NC(C)=O)SC (stereo unspecified)" assignedclass=False

Query molecule follows.
Which outcome did this test record for the molecule `S=C1NCCN1` ?
False

----------
# measurementTarget: rat CYP2A1, Cyp2a1 (gene 24894)
# methodNotes: NVS_ADME_rCYP2A1: NovaScreen (NVS) CYP450-related Enzyme Activity (ADME) Assay for rat CYP2A1 (AID 2283114)
Activity calls are given as the source filed them. Rule for the calls: active = hit-call score of the fitted dose curve at least 0.9, where 1 is the maximum; inactive = score below 0.9.
Returns: one label drawn from active, inactive

These recorded examples may help you get a feel for the data.
compound=CC1(C(=O)Nc2ccc(O)c(Cl)c2Cl)CCCCC1 assignedclass=active
compound=CN(C)C(=O)Nc1cccc(C(F)(F)F)c1 assignedclass=active
compound=C=C(C)[C@H]1Cc2c(ccc3c2O[C@@H]2COc4cc(OC)c(OC)cc4[C@@H]2C3=O)O1 assignedclass=inactive
compound="FC(F)C(F)(F)OCC(Cn1cncn1)c1ccc(Cl)cc1Cl (configuration not stated)" assignedclass=active

Which outcome did this test record for the compound `C#CC(C)(C)NC(=O)c1cc(Cl)cc(Cl)c1` ?
active

Please give the result for CC(C1CC1)C(O)(Cn1cncn1)c1ccc(Cl)cc1 (configuration not stated) too.
active

Please give the result for `CCCOCC(=Nc1ccc(Cl)cc1C(F)(F)F)n1ccnc1` too.
active

----------
# methodNotes: BSK_hDFCGF_Proliferation: Cell Proliferation Assessment in the BioMAP Diversity Plus: hDFCGF Assay (AID 2283059);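 note: curves fitted for both rise and fall of signal versus DMSO baseline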
# runConditions: primary human foreskin fibroblasts
# Procedure: BSK_hDFCGF is a cell-based, multiplexed-readout assay that uses foreskin fibroblast, a human skin primary cell, with measurements taken at 24 hours after chemical dosing in a 96-well plate.BSK_hDFCGF_Proliferation is an assay component measured in the BSK_hDFCGF assay. It measures […] related to cell proliferation using Sulforhodamine staining technology.Data from the assay component BSK_hDFCGF_Proliferation was analyzed into 1 assay endpoint. […]
Calls of active or inactive are those of the source. How the source made its calls: active means hit-call score of the fitted dose curve at least 0.9, where 1 is the maximum; inactive means score below 0.9.
Returns: one label drawn from active, inactive

molecule=CC(C)[C@H](C(=O)O[C@H](C#N)c1cccc(Oc2ccccc2)c1)c1ccc(Cl)cc1 assignedclass=active
molecule=CSC1=N[C@@](C)(c2ccccc2)C(=O)N1Nc1ccccc1 assignedclass=active
molecule="CC(Oc1cccc(Cl)c1)C(=O)O (configuration not stated)" assignedclass=inactive
molecule=Cc1ccn2nc(S(=O)(=O)Nc3c(F)cccc3F)nc2n1 assignedclass=inactive
molecule=COc1ccc(C(=CC(=O)N2CCOCC2)c2ccc(Cl)cc2)cc1OC assignedclass=inactive

Which outcome did this test record for the molecule CC(C)=CC1C(C(=O)OCN2C(=O)C3=C(CCCC3)C2=O)C1(C)C (configuration not stated) ?
active

Please give the result for CCc1cccc(C)c1N(C(=O)CCl)C(C)COC (configuration not stated) too.
active
